- Target: T1, human GPC3 on cells (human, UniProt P51654 25-554)
- T1 construct: whole, on cells; over-expressed on CHOK1 cells or endogenous on HEPG2, Hep3B and Huh-7 hepatocellular carcinoma cells; the cell line is named under assay; also called GPC3-CHOK1 cells; human GPC3 over-expressed CHOK1 cells
- Test Method Notes: FACS, HEPG2 cells
In this section, each of the binders is paired with its reported EC50.

[
  {
    "Binder": "52H5D3B8-6#-VH3+VL2 (antibody, V domains shown, humanized) VH: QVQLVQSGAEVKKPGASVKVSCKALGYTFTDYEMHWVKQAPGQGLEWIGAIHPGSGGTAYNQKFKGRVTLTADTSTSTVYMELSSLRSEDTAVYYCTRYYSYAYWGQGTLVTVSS VL: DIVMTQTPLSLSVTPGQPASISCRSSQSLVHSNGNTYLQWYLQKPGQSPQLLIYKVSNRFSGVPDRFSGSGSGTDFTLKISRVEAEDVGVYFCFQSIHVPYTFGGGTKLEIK",
    "Measurement Unit": "µg/mL",
    "EC50": 0.0444
  },
  {
    "Binder": "52H5D3B8-6#-VH2+VL2 (antibody, V domains shown, humanized) VH: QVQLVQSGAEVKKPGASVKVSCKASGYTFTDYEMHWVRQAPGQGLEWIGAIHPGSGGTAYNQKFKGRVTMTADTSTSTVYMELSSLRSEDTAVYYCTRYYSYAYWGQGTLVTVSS VL: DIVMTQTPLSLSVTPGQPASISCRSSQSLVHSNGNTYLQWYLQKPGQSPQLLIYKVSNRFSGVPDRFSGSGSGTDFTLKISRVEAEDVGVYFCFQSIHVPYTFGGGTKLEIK",
    "Measurement Unit": "µg/mL",
    "EC50": 0.0481
  },
  {
    "Binder": "52H5D3B8-6#-VH2+VL3 (antibody, V domains shown, humanized) VH: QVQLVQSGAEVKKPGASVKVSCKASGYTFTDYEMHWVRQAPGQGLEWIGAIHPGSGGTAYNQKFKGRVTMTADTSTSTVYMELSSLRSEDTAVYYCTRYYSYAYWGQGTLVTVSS VL: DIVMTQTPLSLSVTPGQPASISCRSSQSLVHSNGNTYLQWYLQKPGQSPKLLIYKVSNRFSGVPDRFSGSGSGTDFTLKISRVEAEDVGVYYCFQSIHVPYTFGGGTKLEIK",
    "Measurement Unit": "µg/mL",
    "EC50": 0.0438
  }
]
